# assayedSystem: UniProt Q96EB6
# Sequence (Q96EB6 whole entry): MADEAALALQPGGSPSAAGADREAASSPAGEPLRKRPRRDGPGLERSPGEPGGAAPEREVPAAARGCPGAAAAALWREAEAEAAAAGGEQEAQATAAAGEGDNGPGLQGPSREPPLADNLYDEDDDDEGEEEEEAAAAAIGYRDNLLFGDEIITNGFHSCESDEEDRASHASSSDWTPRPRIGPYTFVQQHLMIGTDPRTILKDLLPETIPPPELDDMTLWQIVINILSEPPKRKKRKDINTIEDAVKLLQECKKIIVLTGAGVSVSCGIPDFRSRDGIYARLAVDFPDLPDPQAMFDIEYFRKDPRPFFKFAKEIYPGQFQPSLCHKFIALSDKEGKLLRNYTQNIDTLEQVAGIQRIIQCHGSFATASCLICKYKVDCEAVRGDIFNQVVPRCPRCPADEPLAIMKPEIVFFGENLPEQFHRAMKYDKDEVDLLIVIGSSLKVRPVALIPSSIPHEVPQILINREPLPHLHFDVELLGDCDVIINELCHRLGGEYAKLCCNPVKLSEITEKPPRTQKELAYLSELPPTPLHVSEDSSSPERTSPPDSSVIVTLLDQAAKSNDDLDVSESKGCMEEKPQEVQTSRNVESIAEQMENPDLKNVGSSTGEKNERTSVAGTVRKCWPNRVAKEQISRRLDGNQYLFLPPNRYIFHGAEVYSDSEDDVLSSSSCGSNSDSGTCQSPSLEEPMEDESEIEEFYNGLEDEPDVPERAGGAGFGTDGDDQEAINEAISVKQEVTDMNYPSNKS
# protocolText: SIRT1 deacetylation of Trp 5-mer peptide, OAADPr mass spec assay
# conditionLabel: Trp SIRT1_IC50, Trp 5-mer peptide; class symbols
Parameter: IC50. Scope: all listed entries.

Exam item: Look up UniProt Q96EB6 data: IC50 of NC(=O)c1cc2ncnc(N3CCN(CCO)CC3)c2s1 , then report it.
Marked response: 1000 to 10000 nM

Exam item: Look up UniProt Q96EB6 data: IC50 of CC(C)(C)C(=O)NCCC1CCN(c2ccnc3cc(C(N)=O)sc23)CC1 , then report it.
Marked response: < 1000 nM

Exam item: Look up UniProt Q96EB6 data: IC50 of NC(=O)c1cc2ncnc(N3CCC(CN4CCCC4C(F)(F)F)CC3)c2s1 (stereo not drawn) , then report it.
Marked response: < 1000 nM

Exam item: Look up UniProt Q96EB6 data: IC50 of NC(=O)c1cc2ncnc(N3CCC(CCN4CCCC4=O)CC3)c2s1 , then report it.
Marked response: < 1000 nM

Exam item: Look up UniProt Q96EB6 data: IC50 of NC(=O)c1cc2ccnc(N3CCC(CCN4CCCC4)CC3)c2s1 , then report it.
Marked response: 1000 to 10000 nM

Exam item: Look up UniProt Q96EB6 data: IC50 of NC(=O)c1cc2ncnc(N3CCC(CCN4CCCC4)CC3)c2o1 , then report it.
Marked response: 1000 to 10000 nM

Exam item: Look up UniProt Q96EB6 data: IC50 of CN(C)CCC1CCN(c2ncnc3cc(C(N)=O)sc23)CC1 , then report it.
Marked response: 1000 to 10000 nM

Exam item: Look up UniProt Q96EB6 data: IC50 of NCCCC1CCN(c2ncnc3cc(C(N)=O)sc23)CC1 [Compound 77, 2,2,2-trifluoroacetate] , then report it.
Marked response: < 1000 nM

Exam item: Look up UniProt Q96EB6 data: IC50 of CN(C)CC1CCN(c2ncnc3cc(C(N)=O)sc23)CC1 , then report it.
Marked response: 1000 to 10000 nM

Exam item: Look up UniProt Q96EB6 data: IC50 of NC(=O)c1cc2ncnc(N3CCC(CCNC(=O)C4CCCC4)CC3)c2o1 , then report it.
Marked response: < 1000 nM

Exam item: Look up UniProt Q96EB6 data: IC50 of COCCC1CCN(c2ncnc3cc(C(N)=O)sc23)CC1 , then report it.
Marked response: < 1000 nM

Exam item: Look up UniProt Q96EB6 data: IC50 of NC(=O)c1cc2ncnc(N3CCC(CCO)CC3)c2o1 , then report it.
Marked response: 1000 to 10000 nM

Exam item: Look up UniProt Q96EB6 data: IC50 of CC(=O)NCCN1CCN(c2ncnc3cc(C(N)=O)sc23)CC1 , then report it.
Marked response: 1000 to 10000 nM

Exam item: Look up UniProt Q96EB6 data: IC50 of CS(=O)(=O)NCCN1CCN(c2ncnc3cc(C(N)=O)sc23)CC1 [Compound 32, 2,2,2-trifluoroacetate] , then report it.
Marked response: < 1000 nM

Exam item: Look up UniProt Q96EB6 data: IC50 of NCC1CCN(c2ncnc3cc(C(N)=O)sc23)CC1 , then report it.
Marked response: > 10000 nM

Exam item: Look up UniProt Q96EB6 data: IC50 of CC(C)(C)OC(=O)c1ccc(C(=O)NCCC2CCN(c3ncnc4cc(C(N)=O)sc34)CC2)s1 , then report it.
Marked response: < 1000 nM

Exam item: Look up UniProt Q96EB6 data: IC50 of NC(=O)c1cc2ncnc(N3CCC(C4CCNCC4)CC3)c2s1 , then report it.
Marked response: < 1000 nM

Exam item: Look up UniProt Q96EB6 data: IC50 of CC(C)(C)OC(=O)NCCN1CCN(c2ncnc3cc(C(N)=O)sc23)CC1 [Compound 15b] , then report it.
Marked response: < 1000 nM

Exam item: Look up UniProt Q96EB6 data: IC50 of NC(=O)c1cc2ncnc(N3CCC(CCNC(=O)c4ccc(C(=O)O)s4)CC3)c2s1 , then report it.
Marked response: < 1000 nM

Exam item: Look up UniProt Q96EB6 data: IC50 of NCCC1CCN(c2ncnc3ccsc23)CC1 [Compound 188, 2,2,2-trifluoroacetate] , then report it.
Marked response: > 10000 nM

Exam item: Look up UniProt Q96EB6 data: IC50 of CC(C)(C)OC(=O)NCCC1CCN(c2ncnc3cc(C(N)=O)sc23)CC1 [Compound 15a] , then report it.
Marked response: < 1000 nM

----------
# protocolText: HPLC based lipophilicity assay (CHI LogD)
# Format: physicochemical
# conditionLabel: CHI values by reverse phase HPLC transformed to a LogD scale
recordedEndpoint: LogD

compound	obsValue
CCNC(=O)c1cccc(C(=O)NCCC2CCN(c3ncnc4cc(C(N)=O)sc34)CC2)c1 [Compound 11a]	2.09
CC(C)(C)C(=O)NCCC1CCN(c2ncnc3cc(C(N)=O)sc23)CC1	2.73
CCNC(=O)c1cccc(C(=O)NCCN2CCN(c3ncnc4cc(C(N)=O)sc34)CC2)c1 [Compound 11b]	1.45

P = CCNC(=O)c1ccc(C(=O)NCCN2CCN(c3ncnc4cc(C(N)=O)sc34)CC2)s1 [Compound 11d]
Q = CCNC(=O)c1ccc(C(=O)NCCC2CCN(c3ncnc4cc(C(N)=O)sc34)CC2)s1 [Compound 11c]
Exam item: Which record shows the lower LogD: the first, P , or the second, Q ? Please indicate the selected item by its label.
Marked response: P
(P: 1.32, Q: 2.09)

----------
Parameter: IC50. Scope: all listed entries.
# assayedSystem: SIRT3 (Homo sapiens, UniProt Q9NTG7)
# Sequence (Q9NTG7 102-399): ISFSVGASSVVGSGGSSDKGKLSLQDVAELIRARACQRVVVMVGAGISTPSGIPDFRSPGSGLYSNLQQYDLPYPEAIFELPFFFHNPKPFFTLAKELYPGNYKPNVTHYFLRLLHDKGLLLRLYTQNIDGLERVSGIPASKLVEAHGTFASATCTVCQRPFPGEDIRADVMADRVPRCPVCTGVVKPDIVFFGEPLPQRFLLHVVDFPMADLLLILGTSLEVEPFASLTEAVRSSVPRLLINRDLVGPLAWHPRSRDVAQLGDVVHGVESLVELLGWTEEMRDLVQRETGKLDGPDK
# protocolText: SIRT3 deacetylation of Trp 5-mer peptide, OAADPr mass spec assay
# conditionLabel: Trp SIRT3_IC50, Trp 5-mer peptide; class symbols

Known IC50 results, listed for orientation:
smilesStructure	recordedEndpoint	obsValue
NC(=O)c1cc2ncnc(N3CCC(CCN4CCCC4=O)CC3)c2s1	IC50	< 1000 nM
NC(=O)c1cc2ccnc(N3CCN(CCN4CCCC4)CC3)c2s1	IC50	< 1000 nM
COC(=O)c1ccc(C(=O)NCCC2CCN(c3ncnc4cc(C(N)=O)sc34)CC2)s1	IC50	< 1000 nM
NC(=O)c1cc2ncnc(N3CCC(C4CCNCC4)CC3)c2o1	IC50	1000 to 10000 nM

Let us move to another entry and its IC50.
Exam item: Item Cc1nc(N2CCN(CCNS(C)(=O)=O)CC2)c2sc(C(N)=O)cc2n1 : provide IC50
Marked response: 1000 to 10000 nM

----------
Parameter: IC50. Scope: all listed entries.
# assayedSystem: SIRT2 (Homo sapiens)
# Sequence (Q8IXJ6 whole entry): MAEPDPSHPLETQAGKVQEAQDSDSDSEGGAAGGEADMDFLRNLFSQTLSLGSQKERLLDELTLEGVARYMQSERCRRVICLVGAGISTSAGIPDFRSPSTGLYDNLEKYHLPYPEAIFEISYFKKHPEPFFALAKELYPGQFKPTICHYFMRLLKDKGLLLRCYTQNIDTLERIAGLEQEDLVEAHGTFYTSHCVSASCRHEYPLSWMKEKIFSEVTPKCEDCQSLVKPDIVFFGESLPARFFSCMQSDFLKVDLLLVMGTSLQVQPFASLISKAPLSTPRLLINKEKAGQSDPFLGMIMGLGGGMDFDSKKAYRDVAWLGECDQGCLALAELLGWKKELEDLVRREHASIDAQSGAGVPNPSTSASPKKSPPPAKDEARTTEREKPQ
# protocolText: SIRT2 deacetylation of Trp 5-mer peptide, OAADPr mass spec assay
# Assay type: biochemical
# Set-up: His-SIRT2(1-389)
# conditionLabel: Trp 5-mer peptide; class symbols; read-out: Trp SIRT2_IC50

compound	assayedSystem	IC50
CNCC1CCN(c2ncnc3cc(C(N)=O)sc23)CC1	SIRT2 (Homo sapiens)	1 to 10 µM

Exam item: Item NC(=O)c1cc2ncnc(N3CCC(CCNC(=O)C4CCCC4)CC3)c2s1 : provide IC50
Marked response: < 1 µM

Exam item: Item Cc1nc(N2CCC(CCN3CCCC3)CC2)c2sc(C(N)=O)cc2n1 : provide IC50
Marked response: 1 to 10 µM

Exam item: Item NC(=O)c1cc2ncnc(N3CCC(CCn4ccnc4)CC3)c2s1 : provide IC50
Marked response: < 1 µM

Exam item: Item COCCC1CCN(c2ncnc3cc(C(N)=O)sc23)CC1 : provide IC50
Marked response: < 1 µM

Exam item: Item CC(C)(C)C(=O)NCC1CCN(c2ncnc3cc(C(N)=O)sc23)CC1 : provide IC50
Marked response: < 1 µM

Exam item: Item CCNC(=O)c1ccc(C(=O)NCCN2CCN(c3ncnc4cc(C(N)=O)sc34)CC2)s1 [Compound 11d] : provide IC50
Marked response: < 1 µM

Exam item: Item CN(C)CCC1CCN(c2ncnc3cc(C(N)=O)sc23)CC1 : provide IC50
Marked response: < 1 µM

Exam item: Item NC(=O)c1cc2ncnc(N3CCN(CCN4CCCC4)CC3)c2s1 [Compound 35, bis(2,2,2-trifluoroacetate)] : provide IC50
Marked response: < 1 µM

----------
# assayedSystem: UniProtKB Q96EB6
# protocolText: SIRT1 deacetylation of Trp 5-mer peptide, OAADPr mass spec assay
# conditionLabel: Trp SIRT1_IC50, Trp 5-mer peptide; class symbols
Parameter: IC50. Scope: all listed entries.

Known IC50 results, listed for orientation:
smilesStructure	assayedSystem	IC50
CCNc1ncnc2cc(C(N)=O)sc12	UniProtKB Q96EB6	> 10 µM
NC(=O)c1cc2ncnc(N3CCC(O)(CN4CCCC4)CC3)c2s1	UniProtKB Q96EB6	1 to 10 µM
CC(C)(C)OC(=O)NCCC1CCN(c2nccc3cc(C(N)=O)sc23)CC1	UniProtKB Q96EB6	1 to 10 µM

Exam item: Look up UniProtKB Q96EB6 data: IC50 of CC(C)(C)C(=O)NCCCC1CCN(c2ncnc3cc(C(N)=O)sc23)CC1 , then report it.
Marked response: < 1 µM

Exam item: Look up UniProtKB Q96EB6 data: IC50 of NC(=O)c1cc2ncnc(N3CCC(CCn4ccnc4)CC3)c2s1 , then report it.
Marked response: < 1 µM

Exam item: Look up UniProtKB Q96EB6 data: IC50 of O=C(O)c1cc2ncnc(N3CCC(CN4CCCC4)CC3)c2s1 , then report it.
Marked response: > 10 µM

Exam item: Look up UniProtKB Q96EB6 data: IC50 of NCCC1CCN(c2ncnc3cc(C(N)=O)oc23)CC1 , then report it.
Marked response: 1 to 10 µM

Exam item: Look up UniProtKB Q96EB6 data: IC50 of Cc1nc(N2CCN(CCNC(=O)C3CCCC3)CC2)c2sc(C(N)=O)cc2n1 , then report it.
Marked response: 1 to 10 µM

Exam item: Look up UniProtKB Q96EB6 data: IC50 of Cc1nc(N2CCN(CCN)CC2)c2sc(C(N)=O)cc2n1 , then report it.
Marked response: > 10 µM
